Test system: CP215
Experiment: qHTS profiling for inhibitors of Plasmodium falciparum proliferation (AID 504749); note: nearly all actives have a fitted effect of over 60% in size
Conditions: P. falciparum in erythrocytes, SYBR Green DNA, 72 h; series mostly up to 28.7 µM
Results filed as inconclusive are left out. Active and inactive are the calls of the source. Calls come from the whole dose curve; as a rule, active = well fitted inhibition curve with a large enough effect; inconclusive = small, poorly fitted or top-dose-only effect; inactive = flat fitted curve, though single readings scatter.
Outcomes: active, inactive

{"compound": "C=C1c2cccc(O)c2C(O)=C2C(=O)[C@@]3(O)C(O)=C(C(N)=O)C(=O)[C@@H](N(C)C)[C@@H]3[C@@H](O)[C@H]12", "cat": "inactive"}
{"compound": "CN1CC(=O)N2C(Cc3c([nH]c4ccccc34)[C@H]2c2ccc3c(c2)OCO3)C1=O (some centres not stated)", "cat": "inactive"}
{"compound": "NS(=O)(=O)c1cc(Cl)c(Cl)c(S(N)(=O)=O)c1", "cat": "inactive"}
{"compound": "CN1CCN2c3ncccc3Cc3ccccc3C2C1 (configuration not stated)", "cat": "inactive"}
{"compound": "COc1ccnc(CS(=O)c2nc3ccc(OC(F)F)cc3[nH]2)c1OC (configuration not stated)", "cat": "inactive"}
{"compound": "N#CC(c1ccc(Cl)cc1)c1c(Cl)cc(-n2ncc(=O)[nH]c2=O)cc1Cl (configuration not stated)", "cat": "inactive"}
{"compound": "Clc1ccc(COC(Cn2ccnc2)c2ccc(Cl)cc2Cl)c(Cl)c1 (configuration not stated)", "cat": "active"}

* * *

Test system: MKL-1
Assay: qHTS assay to identify novel small-molecules to repurpose for Merkel cell carcinoma treatment (AID 1296009); note: nearly all actives have a fitted effect of over 60% in size; note: potency is the fitted concentration of half-maximal effect
Conditions: MCC and control cell lines, CellTiter-Glo viability, 72 h; series mostly up to 46 µM
Records with an inconclusive call do not appear. Activity calls are given as the source filed them. The call rests on the fitted dose curve; in most records, active means well fitted inhibition curve with a large enough effect; inconclusive means small, poorly fitted or top-dose-only effect; inactive means flat fitted curve, though single readings scatter.

{"compound": "CCCCC(C=O)NC(=O)C(CC(C)C)NC(=O)OCc1ccccc1 (stereo not drawn)", "Potency": "inactive"}
{"compound": "CC[C@H](C=C[C@@H](C)[C@H]1CC[C@H]2[C@@H]3CC=C4C[C@@H](O)CC[C@]4(C)[C@@H]3CC[C@]12C)C(C)C", "Potency": "inactive"}
{"compound": "Cc1cc(C(C)Nc2ccccc2)c2nc(N3CCOCC3)cc(=O)n2c1 (stereo not drawn)", "Potency": "inactive"}
{"compound": "CC1(C)[C@H]2CC[C@]3(C)[C@@H](C(=O)C=C4[C@@H]5C[C@@](C)(C(=O)O)CC[C@]5(C)CC[C@]43C)[C@@]2(C)CC[C@@H]1O", "Potency": "inactive"}
{"compound": "COc1cccc(OC)c1-c1cc(C(=O)NC2(C(=O)O)C3CC4CC(C3)CC2C4)nn1-c1ccnc2cc(Cl)ccc12 (stereo not drawn)", "Potency": "inactive"}
{"compound": "Cc1cccc(-c2[nH]c(C(C)(C)C)nc2-c2ccc3c(c2)OCO3)n1", "Potency": "3.72 µM (active)"}
{"compound": "OC[C@H]1O[C@@H](OCCc2ccc(O)cc2)[C@H](O)[C@@H](O)[C@H]1O", "Potency": "inactive"}
{"compound": "CCN(CC)CCCCNc1nc2cc(Cl)c(Cl)cc2nc1-c1ccc(-c2cccs2)s1", "Potency": "23.5 µM (active)"}

* * *

Form field: Potency (one value per entry).
Test: qHTS assay to identify inhibitors of the type 1 interferon - major histocompatibility complex class I in skeletal muscle: Counter screen cell viability and HiBit confirmation (AID 1347412); note: potency is the fitted concentration of half-maximal effect; nearly all actives have a fitted effect of over 60% in size
Settings: iHSKM muscle cells + IFN-b, HiBiT or CellTiter-Glo, 24 h; Viability
Records with an inconclusive call do not appear. Activity calls are given as the source filed them. Calls come from the whole dose curve; as a rule, active = well fitted inhibition curve with a large enough effect; inconclusive = small, poorly fitted or top-dose-only effect; inactive = no such curve, though single readings can be large or run the other way.

{"smilesNotation": "CC1(COc2ccc3c(c2)ncn3-c2ccc3cccc(N4CCC(N)CC4)c3n2)COC1", "Potency": "27.9 µM (active)"}
{"smilesNotation": "COc1ccc(-c2ccc3ncc4c(c3c2)n(-c2ccc(N3CCNCC3)c(C(F)(F)F)c2)c(=O)n4C)cn1", "Potency": "4.43 µM (active)"}
{"smilesNotation": "CN(C)CCN(C)C(=O)c1ccc(NC(=O)Nc2ccc(-c3nc(N4CCOCC4)c4ccn(CC(F)(F)F)c4n3)cc2)cc1", "Potency": "1.11 µM (active)"}
{"smilesNotation": "COc1cc2nccc(Oc3ccc(NC(=O)Nc4ccc(F)cc4F)c(F)c3)c2cc1OC", "Potency": "7.87 µM (active)"}

* * *

Assay: Quantitative High-Throughput drug screen in 47 multiple myeloma cell lines against the NCATS MIPE library collection: ARD_JJKsccE7 cell viability assay (AID 1918929)
Settings: ARD myeloma cell line viability, CellTiter-Glo, 48 h; series mostly up to 45.8 µM
From the text: PI: Beverly A. Mock Ph.D. Laboratory of Cancer Biology and Genetics, Center for Cancer Research, National Cancer Institute, National Institute of Health, Bethesda, Maryland […] 5; Detector; 425V; Luminescence; Viewlux PerkinElmer. […] 1. […] Briefly, the corresponding myeloma cell lines were screened in 1,536-well plates with 500 cells, 5-uL per well for inhibition of cell viability (assessed by measuring ATP levels with CellTiterGlo). […]
Results filed as inconclusive are left out. Calls of active or inactive are those of the source. The call rests on the fitted dose curve; in most records, active means well fitted cell-killing curve with a large enough effect; inconclusive means small, poorly fitted or top-dose-only effect, or effect the other way; inactive means no such curve, though single readings can be large or run the other way.
Outcome codes: active, inactive

{"compound": "FC(F)(F)c1ccc(C=Cc2nc(COc3ccc(CCCCn4ccnn4)cc3)co2)cc1", "cat": "active"}
{"compound": "O[C@@H](COc1cccc2ncccc12)CN1CCN(C2c3ccccc3[C@@H]3[C@H](c4ccccc42)C3(F)F)CC1 (stereo partly specified)", "cat": "inactive"}
{"compound": "Oc1cc(O)cc(C=Cc2ccc(O)c(O)c2)c1", "cat": "active"}
{"compound": "COc1nccc(-c2c(-c3ccc(F)cc3)ncn2C2CCC(O)CC2)n1 (stereo unspecified)", "cat": "active"}
{"compound": "CCOC(=O)[C@H](CCc1ccccc1)N[C@@H](C)C(=O)N1CCCC1C(=O)O (stereo partly specified)", "cat": "inactive"}
{"compound": "Cc1ccc(S(=O)(=O)Nc2nc3ccccc3nc2Nc2ccc3nsnc3c2)cc1", "cat": "active"}
{"compound": "CC[C@H](CC#N)OC(=O)N[C@@H](C)c1cccc(NC(=O)Nc2ccc(-c3cnco3)c(OC)c2)c1", "cat": "active"}
{"compound": "O=c1[nH]c(=O)n([C@H]2C[C@@H](O)[C@@H](CO)O2)cc1I", "cat": "active"}
{"compound": "CC(=O)O[C@]1(C(C)=O)CC[C@H]2[C@@H]3C=C(Cl)C4=CC(=O)[C@@H]5C[C@H]5[C@]4(C)[C@@H]3CC[C@@]21C", "cat": "active"}
{"compound": "C[C@H]1[C@H](O)O[C@@H]2O[C@@]3(C)CC[C@@H]4[C@H](C)CC[C@@H]1[C@@]24OO3", "cat": "active"}
{"compound": "CN(C)CCN(C)C(=O)c1ccc(NC(=O)Nc2ccc(-c3nc(N4CCOCC4)c4ccn(CC(F)(F)F)c4n3)cc2)cc1", "cat": "active"}
{"compound": "O=C(NCCCCN1CCOCC1)c1cc2ccccc2o1", "cat": "inactive"}
{"compound": "CC(C)Oc1cc(Nc2nc(N[C@@H](C)c3ccc(F)cn3)ncc2Cl)[nH]n1", "cat": "active"}
{"compound": "CC(=O)OCC(=O)[C@@]12OC(C)(C)O[C@H]1C[C@H]1[C@@H]3C[C@H](F)C4=CC(=O)C=C[C@]4(C)[C@@]3(F)[C@@H](O)C[C@@]12C", "cat": "active"}
{"compound": "COc1cc([C@@H]2c3cc4c(cc3[C@@H](O[C@@H]3O[C@@H]5CO[C@@H](C)O[C@@H]5[C@H](O)[C@@H]3O)[C@H]3COC(=O)[C@H]23)OCO4)cc(OC)c1O", "cat": "inactive"}
{"compound": "COc1cccc(OC)c1-c1cc(C(=O)NC2(C(=O)O)C3CC4CC(C3)CC2C4)nn1-c1ccnc2cc(Cl)ccc12 (stereo unspecified)", "cat": "inactive"}
{"compound": "CCCCn1c(=O)n(Cc2ccccc2F)c(=O)c2[nH]c(Cc3ccc(NC(C)=O)cc3)nc21", "cat": "inactive"}
{"compound": "Cc1cccc(-c2[nH]c(C(C)(C)C)nc2-c2ccc3c(c2)OCO3)n1", "cat": "active"}
{"compound": "CCCCC[C@H](O)C=C[C@H]1[C@H](O)CC(=O)[C@H]1CC=CCCCC(=O)O", "cat": "inactive"}
{"compound": "O=C(CCCN1CCN(c2ccc(F)cc2)CC1)NC1c2ccccc2CSc2ccccc21 (stereo unspecified)", "cat": "active"}
{"compound": "CC(=O)N1CCN(c2ccc(OCc3nn(C)c(C)c3-c3cccc4c(CCCOc5cc(C)c(Cl)c(C)c5)c(C(=O)O)n(Cc5cccnc5)c34)cc2)CC1", "cat": "active"}
{"compound": "Cc1ccc(NC(=O)Nc2cc(C(F)(F)F)ccc2F)cc1Nc1ccc2c(c1)NC(=O)C2=Cc1ccc[nH]1", "cat": "active"}
{"compound": "C[C@H]1O[C@@H](n2cc(F)c(=O)[nH]c2=O)[C@H](O)[C@H]1O", "cat": "active"}
{"compound": "COc1cc2c(cc1OC)CC(=O)N(CCCN(C)C[C@H]1Cc3cc(OC)c(OC)cc31)CC2", "cat": "active"}
{"compound": "Cc1ccc(S(=O)(=O)OCC(=O)Nc2ccc(C(=O)O)c(O)c2)cc1", "cat": "inactive"}
{"compound": "COc1cc2nccc(Oc3ccc(NC(=O)Nc4cc(C)on4)c(Cl)c3)c2cc1OC", "cat": "active"}

Data provenance is PubChem BioAssay (NCATS).
